# Test system: Vero E6
# Procedure details: cell viability relative to DMSO; higher = less toxic
# Particulars: 72 h; 10000 nM
Below is a list of entries, each paired with its recorded cell viability value.
Assay metric: cell viability

>>> obs_value("CCn1cnc2c(Nc3cccc(Cl)c3)nc(N[C@@H]3CCCC[C@@H]3N)nc21")
"6.3%"
>>> obs_value("CS(=O)(=O)c1ccc(-c2nnc(/C=C/c3nnc(-c4ccc(C#N)cc4)o3)n2-c2ccccc2Cl)nc1")
"57.8%"
>>> obs_value("COc1ccc(Cl)cc1NC(=O)Nc1cc(C)nc2ccccc12")
"90.8%"
>>> obs_value("Fc1ccc2nc(CCC#Cc3ccccn3)cn2c1")
"110%"
>>> obs_value("Cc1nc(=O)c2cc(CN(C)c3ccc(C(=O)N[C@@H](CCC(=O)O)C(=O)O)s3)ccc2[nH]1")
"66.6%"
>>> obs_value("O=C(Cn1ccnc1[N+](=O)[O-])NCc1ccccc1")
"98.1%"
>>> obs_value("CN(C)CCOC(=O)C(c1ccccc1)C1(O)CCCC1 (centres undefined) [cyclopentolate]")
"107%"
>>> obs_value("Cc1cccc(Oc2cnc(=O)[nH]c2)c1")
"91.2%"
>>> obs_value("COc1ccc(C2(CNC(=O)c3ccc(NC(=O)c4ccco4)cc3)CCOCC2)cc1")
"62.6%"

====

# Tested on: Calu-3
# Procedure details: cell viability relative to DMSO; higher = less toxic
# Particulars: 72 h; 10 nM
Below is a list of entries, each paired with its recorded cell viability value.
Assay metric: cell viability (%)

>>> obs_value("Cn1nnc(-c2ccc(-c3ccc(N4C[C@H](COP(=O)(O)O)OC4=O)cc3F)cn2)n1 [tedizolid-phosphate]")
103
>>> obs_value("Cc1cccc2c1CC[C@H](CN1CCC(c3c(Cl)cccc3Cl)CC1)C[C@@H]2O")
106
>>> obs_value("CN1CCN(c2ccc(-c3cccc(CN4CCOCC4)c3)cc2NC(=O)c2c[nH]c(=O)cc2C(F)(F)F)CC1 [OICR-9429]")
108
>>> obs_value("NC(=O)c1cn(Cc2c(F)cccc2F)nn1 [rufinamide]")
97.7
>>> obs_value("N[C@H](C(=O)O)c1ccc(O)c(C(=O)O)c1 [3-carboxy-4-hydroxyphenylglycine-(S)]")
89
>>> obs_value("C[C@@]12CC[C@@H]3[C@@](CC[C@H]4[C@@]3(C)CCC[C@@]4(C)C(=O)O)(CC1=O)C2 [isosteviol]")
105
>>> obs_value("CNC1CCCN(c2c(F)cc3c(=O)c(C(=O)O)cn(C4CC4)c3c2OC)C1 (stereo unspecified) [balofloxacin]")
94.8
>>> obs_value("CN1[C@@H]2CC[C@H]1C[C@@H](OC(c1ccccc1)c1ccccc1)C2 [benztropine-mesylate]")
101
>>> obs_value("COc1ccc(OC)c2c(=S)c3ccccc3[nH]c12")
100
>>> obs_value("COC(=O)/C=C/C(=O)N[C@@H]1CC[C@@]2(O)[C@H]3Cc4ccc(O)c5c4[C@@]2(CCN3CC2CC2)[C@H]1O5 [beta-funaltrexamine]")
99.5
>>> obs_value("CCCCOc1nc(N)c2c(n1)N(Cc1cccc(CN3CCCC3)c1)CC(=O)N2 [GS-9620]")
95.1

====

# Tested on: Caco-2
# Procedure details: cell viability relative to DMSO; higher = less toxic
# Particulars: 72 h; 1000 nM
Assay metric: cell viability (%)

>>> obs_value("Clc1ccc(N2CCN(Cc3c[nH]c4ncccc34)CC2)cc1")
93.5
>>> obs_value("Cc1cccc(Oc2cnc(=O)[nH]c2)c1 [tolimidone]")
95.9
>>> obs_value("Cn1cnc(N)c2ncnc1-2 [3-methyladenine]")
102
>>> obs_value("c1ccc(C(NCc2cccnc2)(c2ccccc2)c2ccccc2)cc1 [UCL-2077]")
103
>>> obs_value("N=C(N)c1ccc(OCCCCCOc2ccc(C(=N)N)cc2)cc1 [pentamidine]")
93.9
>>> obs_value("CCCOc1ccc(S(=O)(=O)N2CCN(CCO)CC2)cc1-c1nc2c(CCC)cn(CC)c2c(=O)[nH]1 [mirodenafil]")
107
>>> obs_value("C[C@]12C/C(=C/O)C(=O)C[C@@H]1CC[C@@H]1[C@@H]2CC[C@@]2(C)[C@H]1CC[C@]2(C)O [Oxymetholone]")
90.4
>>> obs_value("CC(C)(Cc1c[nH]c2ccc(Cl)cc12)NCCOc1ccccc1OCC1CC1")
103
>>> obs_value("COc1ccc(C2(CNC(=O)c3ccc(NC(=O)c4ccco4)cc3)CCOCC2)cc1 [JW-55]")
92.1
>>> obs_value("CC1(C)S[C@@H]2[C@H](NC(=O)[C@H](NC(=O)N3CCN(S(C)(=O)=O)C3=O)c3ccccc3)C(=O)N2[C@H]1C(=O)O [mezlocillin]")
89.4
>>> obs_value("O=C(Nc1nc2cccc(-c3ccc(CN4CCS(=O)(=O)CC4)cc3)n2n1)C1CC1 [filgotinib]")
95.7
>>> obs_value("CC[C@H]1OC(=O)C[C@@H](O)[C@H](C)[C@@H](O[C@@H]2O[C@H](C)C[C@H](N(C)C)[C@H]2O)[C@@H](CC=O)C[C@@H](C)C(=O)/C=C/[C@]2(C)O[C@H]2[C@@H]1C [rosamicin]")
100
>>> obs_value("O=C(O)COc1cccc(-c2ocnc2-c2nc(-c3ccccc3)c(-c3ccccc3)o2)c1")
94.4
>>> obs_value("C=CCN1CC[C@]23c4c5ccc(O)c4O[C@H]2/C(=N/NC(=O)c2ccccc2)CC[C@@]3(O)[C@H]1C5 [naloxone-benzoylhydrazone]")
94.7
>>> obs_value("C#C[C@]1(O)C=C[C@H]2[C@@H]3CCC4=CC(=O)CC[C@@H]4[C@H]3CC[C@@]21CC [gestodene]")
100
>>> obs_value("O=C(NO)C1(CS(=O)(=O)c2ccc(Oc3ccc(Cl)cc3)cc2)CCOCC1 [CTS-1027]")
98.8
>>> obs_value("CCc1ccc2c(-c3cccc(Cl)c3)nc(=O)n(CC)c2n1 [YM-976]")
109
